Numbers sourced from PubChem BioAssay.

The entries below come with measured composite z-score values attached.
- target.of.assay: Torsin-1A (Homo sapiens)
- procedure.text: small-molecule binders of mutant TOR1A in lysate, primary screen, cell lysate, small-molecule microarray, COS7 lysate, 635/667 nm fluorescence (AID 1150);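 also: score pools 667 nm emission and signal to noise measuring lysate protein binding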
- condition: COS7 hTOR1A mutant lysate, 635 nm fluorescence, higher = more signal
# print the numeric value only

IN: Quote Torsin-1A (Homo sapiens) composite z-score for entry "C=C(CCCC)/C(=C/C[C@@H](OC(=O)c1ccncc1)c1ccc(CO)o1)c1cnc2ccccc2c1" .
OUT: 1.07

IN: Quote Torsin-1A (Homo sapiens) composite z-score for entry "COc1ccc([Si](C)(C)[C@@H]2[C@@H](CCO)O[C@]3(C(=O)N(Cc4ccc(NC(=O)[C@H](C)O)cc4)c4ccccc43)[C@H]2C)cc1" .
OUT: 0.392

IN: Quote Torsin-1A (Homo sapiens) composite z-score for entry "COC(=O)[C@@]1(Cc2ccccc2N=[N+]=[N-])N=C(c2ccc(OCCCO)cc2)O[C@H]1c1ccccc1CN=[N+]=[N-]" .
OUT: -0.303

IN: Quote Torsin-1A (Homo sapiens) composite z-score for entry "O=C(NCc1ccccc1)[C@@]1(CCS(=O)(=O)c2ccccc2)COC(c2ccc(OCCCO)cc2)=N1" .
OUT: 0.576

====

- target.of.assay: NADPH oxidase 4 (Homo sapiens) (UniProt Q9NPH5)
- Sequence (Q9NPH5 whole entry, looked up): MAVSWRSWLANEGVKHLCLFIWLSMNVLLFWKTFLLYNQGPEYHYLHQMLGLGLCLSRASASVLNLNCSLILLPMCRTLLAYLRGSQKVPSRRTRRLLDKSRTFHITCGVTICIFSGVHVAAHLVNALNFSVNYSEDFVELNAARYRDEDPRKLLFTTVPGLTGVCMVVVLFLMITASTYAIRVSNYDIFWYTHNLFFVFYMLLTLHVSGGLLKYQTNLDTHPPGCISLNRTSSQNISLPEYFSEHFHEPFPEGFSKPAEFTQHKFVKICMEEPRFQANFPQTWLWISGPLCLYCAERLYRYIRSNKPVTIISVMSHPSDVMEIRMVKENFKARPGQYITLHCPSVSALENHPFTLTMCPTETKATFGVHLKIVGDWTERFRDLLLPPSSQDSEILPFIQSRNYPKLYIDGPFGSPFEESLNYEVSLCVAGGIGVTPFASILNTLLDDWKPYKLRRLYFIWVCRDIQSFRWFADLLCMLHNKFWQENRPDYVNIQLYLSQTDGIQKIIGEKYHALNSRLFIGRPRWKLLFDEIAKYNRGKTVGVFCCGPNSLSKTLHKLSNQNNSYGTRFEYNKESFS
- procedure.text: NOX4-dependent H2O2 signal modulators, primary screen, NOX inhibitor project, cell-based, HEK293-NOX4, tetracycline-induced, Amplex Red fluorescence (AID 1160)
- condition: 45 min, higher = more signal, called active from +8 up or from −8 down
The entries below come with measured z-score values attached.
# print the numeric value only

Study these solved cases before continuing.
# compound, endpoint.value
data = [
    ("C=CCC(OC(C)=O)[C@@H]1[C@@H](N(Cc2cccc3ccccc23)C(=O)Cc2ccc(F)cc2)c2cc(OCCCO)ccc2N1C(=O)Cc1ccc2ccccc2c1 (some centres undefined)", 0.626),
    ("CO[C@H]1O[C@H](CO)[C@@H](OC(=O)Nc2ccccc2)[C@H](OC(=O)Nc2ccc3c(c2)OCO3)[C@@H]1OC(=O)Nc1ccc2c(c1)OCO2", 0.0792),
    ("CC(=O)NCCCC[C@@H]1NC(=O)[C@H]2C[C@@H](C(=O)NCCCCCCN(C)C)[C@@H](c3cccc(OCCO)c3)N2C1=O", 0.301),
]

Please look at the following compound next.
IN: Identify measured z-score corresponding to "CCCCCCc1nc(C2CC2)c(C)c2c1[Si](C(C)C)(C(C)C)OC2"
OUT: -0.404

====

The entries below come with measured composite z-score values attached.
- procedure.text: anti-His antibody binders, primary screen, artefact control for SMM control protein annotation, biochemical, small-molecule microarray, 635 nm fluorescence (AID 1128);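 also: score merges feature fluorescence with signal-to-noise for each printed compound spot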
- condition: anti-His Alexa647 antibody binding, higher = more signal

# compound, composite z-score
measured = [
    ("CN(C)CCCC[C@@H]1NC(=O)[C@@H]2C[C@H](C(=O)O)[C@H](c3ccc(O)cc3)N2C1=O", 1.34),
    ("COc1ccc([Si](C)(C)[C@@H]2[C@@H](CCO)O[C@]3(C(=O)N(Cc4ccccc4)c4ccccc43)[C@H]2C)cc1", 1.42),
    ("C=C(COC)/C(=C/C[C@@H](OC(C)=O)c1cccc(OCCO)c1)c1cc(C(=O)OC)ccc1OC", -1.25),
    ("C[C@]1(C(=O)NCc2ccccc2)c2ccccc2C(=O)N(Cc2cc(C(F)(F)F)cc(C(F)(F)F)c2)[C@H]1c1ccc(CO)cc1", -0.152),
    ("CN1C2C=C(c3ccc(CO)cc3)C(C3C(=O)N(C(N)=O)C(=O)C32)C1c1cccs1 (stereo unspecified)", -0.734),
    ("C[C@@H]1CC[C@H]2C(=O)N3[C@@H](CC[C@@H](C)[C@@H]3c3cccc(N4CCOCC4)c3)C(=O)N2[C@H]1c1cccc(Br)c1", 1.52),
]

IN: Identify measured composite z-score corresponding to CN1C(=O)C2C=CC(C(O)C3CC=CCC3)N(Nc3ccccc3)C2C1=O (stereo unspecified)
OUT: 0.674

IN: Identify measured composite z-score corresponding to "Cc1ccc(S[C@]2(C(=O)O)CC(=O)N(Cc3cc(C(F)(F)F)cc(C(F)(F)F)c3)[C@@H]2c2ccc(CO)cc2I)cc1"
OUT: -0.339

IN: Identify measured composite z-score corresponding to "Cc1ccc(N2C(=O)c3ccccc3[C@@H](C(=O)NCc3ccccc3)[C@@H]2c2ccc(CO)cc2)nc1"
OUT: -0.841

IN: Identify measured composite z-score corresponding to "COc1ccc(CCN2C(=O)[C@@]3(c4ccc([N+](=O)[O-])cc4)CC(=O)N(CC45CC6CC(CC(C6)C4)C5)[C@@H]3c3ccc(CO)cc32)cc1"
OUT: 0.286
